Attribution: patent US8653086B2

Measured IC50 by item
assay.system: KIX-KID interaction (Homo sapiens)
Construct: RLucC-KIX (15 ng) and KID-RLucN-containing cell lysates
Sequence (Q92793 587-666 limits assumed): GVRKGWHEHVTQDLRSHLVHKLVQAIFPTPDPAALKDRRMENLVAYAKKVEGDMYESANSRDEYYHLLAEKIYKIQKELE
assay.protocol: In vitro renilla luciferase complementation assay
particulars: 4° C., 24 h, read-out: KIX-KID interaction inhibition IC50

compound | IC50 / µM
O=C(Nc1ccc(Cl)cc1)c1cc2ccccc2cc1O [drawing 53] | 2.41
NCCCOc1cc(Cl)ccc1NC(=O)c1cc2ccccc2cc1OCCCN [drawing 54] | 14.7
COc1cc2ccccc2cc1C(=O)Nc1ccc(Cl)cc1OC(=O)c1cc2ccccc2cc1OC [drawing 55] | 0.25
NCCCOc1cc2ccccc2cc1C(=O)Nc1ccc(Cl)cc1OC(=O)c1cc2ccccc2cc1OCCCN [drawing 56] | 7.08

---

System: A549 cells
assay.protocol: A549 cancer cell growth inhibition, MTT (Example 6)
Format: cell-based
particulars: Homo sapiens, 72-h incubation
Experimental: HeLa, A549, and MCF-7 cells, in a 96-well plate (1.0×10^5/well) were treated with different concentrations of the compounds for 72 h. Then the number of cells was quantified by incubating cells with MTT reagent (Sigma, 50 μg/mL) for 3 h. The reduced formazan product was solubilized in DMSO to be measured spectrophotometrically at 570 nm.
// classify: if (GI50 < 9 µM) TRUE else FALSE

compound | qualitative.label
O=C(Nc1ccc(Cl)cc1)c1cc2ccccc2cc1O [drawing 53] | TRUE
NCCCOc1cc(Cl)ccc1NC(=O)c1cc2ccccc2cc1OCCCN [drawing 54] | TRUE
COc1cc2ccccc2cc1C(=O)Nc1ccc(Cl)cc1OC(=O)c1cc2ccccc2cc1OCCCN | FALSE
COc1cc2ccccc2cc1C(=O)Oc1cc(Cl)ccc1NC(=O)c1cc2ccccc2cc1OCCCN | FALSE
NCCCOc1cc2ccccc2cc1C(=O)Nc1ccc(Cl)cc1OC(=O)c1cc2ccccc2cc1OCCCN [drawing 56] | TRUE

---

Measured GI50 by item
Test system: A549 cells
assay.protocol: A549 cell growth inhibition, MTT (Example 2)
Assay type: cell-based
particulars: Homo sapiens, 72 h, mean ± SD of at least two measurements in duplicates unless noted
readout: GI50

compound | readout | result
O=C(Nc1ccccn1)c1cc2ccccc2cc1O | GI50 | 75.8 µM
O=C(Nc1ccc(I)cc1)c1cc2ccccc2cc1O | GI50 | 5.45 µM
Nc1ccc(NC(=O)c2cc3ccccc3cc2O)cc1 | GI50 | 51.6 µM
O=C(Nc1ccc([N+](=O)[O-])cc1)c1cc2ccccc2cc1O | GI50 | 3.28 µM
O=C(Nc1ccc(Cl)cc1)c1cc2ccccc2cc1OP(=O)(O)O [drawing 33] | GI50 | 1.94 µM
O=C(Nc1ccc(Br)cc1)c1cc2ccccc2cc1O | GI50 | 3.98 µM
O=C(Nc1ccc(F)cc1)c1cc2ccccc2cc1O | GI50 | 6.78 µM
O=C(Nc1ccc(O)cc1)c1cc2ccccc2cc1O | GI50 | 28.1 µM
CN(C(=O)c1cc2ccccc2cc1O)c1ccc(Cl)cc1 | GI50 | 29.5 µM
O=C(Nc1ccc(F)c(Cl)c1)c1cc2ccccc2cc1O | GI50 | 3.76 µM
NCCCOc1cc(Cl)ccc1NC(=O)c1cc2ccccc2cc1OCCCN [drawing 36] | GI50 | 2.57 µM
NCCCOc1cc2ccccc2cc1C(=O)Nc1ccc(Cl)cc1 | GI50 | 3.42 µM
COc1cc2ccccc2cc1C(=O)Nc1ccc(Cl)cc1 | GI50 | 62 µM
COc1ccc(NC(=O)c2cc3ccccc3cc2O)cc1 | GI50 | 85.7 µM
O=C(Nc1cnccn1)c1cc2ccccc2cc1O | GI50 | 32.2 µM
O=C(Nc1ccncc1)c1cc2ccccc2cc1O | GI50 | 25 µM
O=C(Nc1ccc(F)c(F)c1)c1cc2ccccc2cc1O | GI50 | 3.57 µM
O=C(Nc1ccc(C(F)(F)F)cc1)c1cc2ccccc2cc1O | GI50 | 4.15 µM
O=C(Nc1ccc(Cl)cc1)c1cc2ccccc2cc1O [drawing 32] | GI50 | 2.88 µM
O=C(Nc1ccccc1)c1cc2ccccc2cc1O | GI50 | 56.9 µM
COc1cc2ccccc2cc1C(=O)Nc1ccc(Cl)cc1OC(=O)c1cc2ccccc2cc1OC [drawing 35] | GI50 | 5.25 µM
